Kindly state IC50 for each of the entries shown.
# Test system: phosphorylation of CDK1 at Thr14 in HCC1806 cells
# assay: Cell lysate AlphaLISA assay measuring inhibition of phosphorylation of CDK1 Thr14
# Assay type: cell-based
# measurementParameters: 4 hours, read-out: Cellular IC50

QUERY: Recorded IC50 for COc1nc2c(-c3cccc(O)c3C)c(N)c(C(N)=O)cc2nc1C [Compound 173] with phosphorylation of CDK1 at Thr14 in HCC1806 cells, please?
RESULT: 50 to 500 nM

QUERY: # get_value(readout= IC50, system= phosphorylation of CDK1 at Thr14 in HCC1806 cells) for Cc1ccc2[nH]ncc2c1-c1c(N)c(C(N)=O)nc2cccnc12 (single isomer, unassigned) [Compound 7]
RESULT: 1000 to 5000 nM

QUERY: // map Cc1c(O)cc(Cl)cc1-c1c(N)c(C(N)=O)nc2cccnc12 (atropisomer, axis not shown) [Compound 289] to recorded IC50 (system: phosphorylation of CDK1 at Thr14 in HCC1806 cells)
RESULT: ≥ 5000 nM

QUERY: Any idea what IC50 came out for Cc1c(O)cccc1-c1c(N)c(C(N)=O)cc2nc(C)c(=O)n(C)c12 (atropisomer, axis not shown) [Compound 170] on phosphorylation of CDK1 at Thr14 in HCC1806 cells?
RESULT: ≥ 5000 nM

QUERY: Under phosphorylation of CDK1 at Thr14 in HCC1806 cells: IC50 value of Cc1c(O)cccc1-c1c(N)c(C(N)=O)cc2nc(C(F)(F)F)c(O)nc12 (atropisomer, axis not shown) [Compound 135] ?
RESULT: 1000 to 5000 nM

QUERY: Query the reported IC50 for phosphorylation of CDK1 at Thr14 in HCC1806 cells; item: Cc1cnc2c(-c3c(C)ccc(O)c3C)c(N)c(C(N)=O)cc2n1 [Compound 217]
RESULT: 50 to 500 nM

QUERY: Could you share what IC50 was measured for COc1ccnc2c(-c3cccc(O)c3C)c(N)c(C(N)=O)cc12 [Compound 318] , tested on phosphorylation of CDK1 at Thr14 in HCC1806 cells?
RESULT: 50 to 500 nM

QUERY: GET /values?readout=IC50&system=phosphorylation of CDK1 at Thr14 in HCC1806 cells&item= Cc1ccc2[nH]ncc2c1-c1c(N)c(C(N)=O)nc2cccnc12 (single isomer, unassigned) [Compound 8]
RESULT: ≥ 5000 nM

QUERY: # returns recorded IC50 (system: phosphorylation of CDK1 at Thr14 in HCC1806 cells) for Cc1ccc(O)cc1-c1c(N)c(C(N)=O)cc2nccnc12 (atropisomer, axis not shown; (M)) [Compound 116]
RESULT: 500 to 1000 nM

QUERY: Notebook: pull reported IC50 for phosphorylation of CDK1 at Thr14 in HCC1806 cells, entry Cc1ccc(O)c(C)c1-c1c(N)c(C(N)=O)nc2c(F)cccc12 (single isomer, unassigned) [Compound 39]
RESULT: ≥ 5000 nM

QUERY: Test system phosphorylation of CDK1 at Thr14 in HCC1806 cells; read-out IC50; what value for NC(=O)c1cc2nccnc2c(-c2c(Cl)ccc3[nH]ncc23)c1N [Compound 142] ?
RESULT: 1000 to 5000 nM

QUERY: Form field: IC50 recorded for Cc1cnc2cc(C(N)=O)c(N)c(-c3c(C)ccc(O)c3C)c2n1 (atropisomer, axis not shown) [Compound 192] with phosphorylation of CDK1 at Thr14 in HCC1806 cells (enter value)
RESULT: ≥ 5000 nM

QUERY: What value of IC50 on phosphorylation of CDK1 at Thr14 in HCC1806 cells does Cc1c(O)cccc1-c1c(N)c(C(N)=O)cc2nc(C(F)(F)F)c(O)nc12 (atropisomer, axis not shown) [Compound 136] have?
RESULT: ≥ 5000 nM

QUERY: Record COc1nc2cc(C(N)=O)c(N)c(-c3cccc(O)c3C)c2nc1C [Compound 172] : what is its IC50 with phosphorylation of CDK1 at Thr14 in HCC1806 cells?
RESULT: 50 to 500 nM

QUERY: Give the reported IC50 for Cc1c(O)cccc1-c1c(N)c(C(N)=O)nc2cccnc12 (single isomer, unassigned) [Compound 4] (system: phosphorylation of CDK1 at Thr14 in HCC1806 cells).
RESULT: < 50 nM

QUERY: For the record NC(=O)c1cc2nccnc2c(-c2cc(O)cnc2Cl)c1N (atropisomer, axis not shown) [Compound 163] , what value of IC50 is listed for phosphorylation of CDK1 at Thr14 in HCC1806 cells?
RESULT: ≥ 5000 nM

QUERY: Recall the recorded IC50 for Cc1ccc(O)c(C)c1-c1c(N)c(C(N)=O)nc2ccc(Cl)cc12 (single isomer, unassigned) [Compound 53] with phosphorylation of CDK1 at Thr14 in HCC1806 cells and state it.
RESULT: 1000 to 5000 nM

QUERY: Report IC50 for COc1nc2cc(C(N)=O)c(N)c(-c3cccc(O)c3C)c2nc1C (atropisomer, axis not shown) [Compound 193] tested on phosphorylation of CDK1 at Thr14 in HCC1806 cells.
RESULT: ≥ 5000 nM

QUERY: Give phosphorylation of CDK1 at Thr14 in HCC1806 cells IC50 for NC(=O)c1nc2cccnc2c(-c2c(F)ccc3[nH]ncc23)c1N [Compound 220]
RESULT: 1000 to 5000 nM

QUERY: Param readout = IC50; param system = phosphorylation of CDK1 at Thr14 in HCC1806 cells; param query = Cc1nc2cc(C(N)=O)c(N)c(-c3cccc(O)c3C)c2nc1C (single isomer, unassigned) [Compound 92] ; response: value
RESULT: 50 to 500 nM

QUERY: Requested read-out IC50, target or system phosphorylation of CDK1 at Thr14 in HCC1806 cells, entry Cc1c(O)cccc1-c1c(N)c(C(N)=O)cc2ccn(C)c(=O)c12 (atropisomer, axis not shown) [Compound 337]
RESULT: 1000 to 5000 nM

QUERY: // lookup IC50 | system=phosphorylation of CDK1 at Thr14 in HCC1806 cells | key= Cc1c(O)cccc1-c1c(N)c(C(N)=O)cc2nc(C(F)(F)F)cnc12 [Compound 96]
RESULT: 1000 to 5000 nM

QUERY: Record lookup: for phosphorylation of CDK1 at Thr14 in HCC1806 cells, what IC50 belongs to Cc1c(O)cccc1-c1c(N)c(C(N)=O)cc2nc(C)c(=O)n(C)c12 [Compound 138] ?
RESULT: 1000 to 5000 nM

QUERY: Give phosphorylation of CDK1 at Thr14 in HCC1806 cells IC50 for Cc1ccc2[nH]ncc2c1-c1c(N)c(C(N)=O)cc2nccnc12 (single isomer, unassigned) [Compound 79]
RESULT: ≥ 5000 nM

QUERY: # returns recorded IC50 (system: phosphorylation of CDK1 at Thr14 in HCC1806 cells) for CCn1ccc2cc(C(N)=O)c(N)c(-c3cccc(O)c3C)c2c1=O (atropisomer, axis not shown) [Compound 328]
RESULT: ≥ 5000 nM

QUERY: Provide value of IC50 for this record tested with phosphorylation of CDK1 at Thr14 in HCC1806 cells: Cc1c(-c2c(N)c(C(N)=O)cc3nccnc23)ccnc1O
RESULT: ≥ 5000 nM

QUERY: What measured IC50 is associated with Cc1ccc(-c2c(N)c(C(N)=O)nc3cccnc23)c(C)c1O (atropisomer, axis not shown) [Compound 288] on phosphorylation of CDK1 at Thr14 in HCC1806 cells?
RESULT: 50 to 500 nM

QUERY: GET /values?readout=IC50&system=phosphorylation of CDK1 at Thr14 in HCC1806 cells&item= Cc1ccc2[nH]ncc2c1-c1c(N)c(C(N)=O)cc2nccnc12 (single isomer, unassigned) [Compound 78]
RESULT: 1000 to 5000 nM

QUERY: phosphorylation of CDK1 at Thr14 in HCC1806 cells / IC50 / Cc1c(O)cccc1-c1c(N)c(C(N)=O)cc2nc(C(F)(F)F)cnc12 (atropisomer, axis not shown; (P)) [Compound 100] : value?
RESULT: 50 to 500 nM
